Attribute: Ki
Target: HIV protease (Human immunodeficiency virus type 1 group M subtype B, UniProt P04585)
Construct: A third viral enzyme known as protease then cleaves the polyproteins
Experiment: Enzymatic Assay for Determining the Inhibition Constant (Ki) of Synthetic Compounds Targeting the HIV Protease (fluorometric FRET assay)
Assay type: biochemical
MEASURE_NAME: Ki (nM)

| MOLECULE | VALUE_OPERATOR | VAL |
| --- | --- | --- |
| COC(=O)N[C@@H](Cc1ccccc1)C(=O)NCCCC[C@@H](CO)N(CC(C)C)S(=O)(=O)c1ccc(N)cc1 [Example 177] | = | 6.6 |
| Cc1ccc(S(=O)(=O)N(CC(C)C)[C@@H](CCCCNC(=O)[C@H](Cc2ccccc2)NS(=O)(=O)c2cccs2)C(N)=O)cc1 [Example 58] | = | 5.2 |
| CC(C)CN([C@H](CO)CCCCNC(=O)[C@H](Cc1ccccc1)NC(=O)N1CCOCC1)S(=O)(=O)c1ccc(N)cc1 [Example 180] | = | 2.4 |
| COc1ccc(S(=O)(=O)N(CC(C)C)[C@H](CO)CCCCNC(=O)[C@H](Cc2c[nH]c3ccccc23)NC(=O)OC(C)(C)C)cc1 [Example 147] | = | 16 |
| CC(=O)Nc1ccc(S(=O)(=O)N[C@@H](Cc2ccccc2)C(=O)NCCCC[C@@H](C(=O)O)N(CC(C)C)S(=O)(=O)c2ccc([N+](=O)[O-])cc2)cc1 [Example 28] | = | 9.3 |
| Cc1ccc(S(=O)(=O)N[C@@H](Cc2c[nH]c3ccccc23)C(=O)NCCCC[C@@H](C(=O)O)N(CC(C)C)S(=O)(=O)c2ccc(N)cc2)cc1 [Example 43] | = | 0.56 |
| Cc1ccc(S(=O)(=O)N(CC(C)C)[C@@H](CCCCNC(=O)CNCCN2CCOCC2)C(=O)O)cc1 [Example 111] | > | 300 |
| CC(C)CN([C@@H](CCCCNC(=O)[C@H](Cc1ccccc1)NS(=O)(=O)c1ccccc1)C(=O)O)S(=O)(=O)c1ccc(N)cc1 [Example 44] | = | 3.6 |
| COc1ccc(CC(=O)N[C@@H](Cc2ccccc2)C(=O)NCCCC[C@@H](CO)N(CC(C)C)S(=O)(=O)c2ccc(C)cc2)cc1 [Example 162] | = | 1.2 |
| CC(C)CN(C(CO)CCCCNC(=O)C(Cc1c[nH]c2ccccc12)NC(=O)c1ccccc1)S(=O)(=O)c1ccc(N)cc1 (stereo not drawn) [Example 186] | = | 1.7 |
| Cc1ccc(S(=O)(=O)N(CC(C)C)[C@@H](CCCCNC(=O)[C@H](Cc2ccccc2)NS(=O)(=O)c2ccc(C(F)(F)F)cc2)C(=O)O)cc1 [Example 23] | = | 12 |
| CC(=O)Nc1ccc(S(=O)(=O)N[C@@H](Cc2ccccc2)C(=O)NCCCC[C@@H](C(=O)O)N(CC(C)C)S(=O)(=O)c2ccc(N)cc2)cc1 [Example 56] | = | 1.9 |

Where do the numbers come from? From patent US6610689B2.
